Target: human wild type STING (WT STING) (Homo sapiens, UniProt Q86WV6, H232R)
Sequence (Q86WV6 whole entry H232R): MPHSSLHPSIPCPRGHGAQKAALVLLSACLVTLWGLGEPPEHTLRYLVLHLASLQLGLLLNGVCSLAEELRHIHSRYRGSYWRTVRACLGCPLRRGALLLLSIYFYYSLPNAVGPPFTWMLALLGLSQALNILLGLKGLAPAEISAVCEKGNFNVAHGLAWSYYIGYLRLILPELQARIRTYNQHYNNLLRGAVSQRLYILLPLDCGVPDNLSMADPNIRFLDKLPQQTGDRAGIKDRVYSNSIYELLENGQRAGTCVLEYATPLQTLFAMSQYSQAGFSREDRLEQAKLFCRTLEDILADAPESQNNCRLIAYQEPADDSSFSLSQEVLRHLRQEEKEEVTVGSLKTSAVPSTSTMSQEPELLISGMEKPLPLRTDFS
Experiment: 293T WT STING standard reporter assay
Type: cell-based
Details: 293T wtSTING-FL cells; standard reporter assay without digitonin; 7 hours; ISRE firefly luciferase; read-out: 293T WT STING EC50
Measured attribute: pEC50
# pEC50: negative log10 of molar concentration; output just the value

Solved entries (count: 4):
Nc1ncnc2c1ncn2[C@@H]1O[C@@H]2COP(=O)(S)O[C@@H]3[C@H](F)[C@@H](COP(=O)(O)CO[C@H]2[C@H]1F)O[C@H]3n1cnc2c(=O)[nH]cnc21 (single isomer, unassigned) [Compound 13b]: 5.96
Nc1nc2c(ncn2[C@@H]2O[C@@H]3COP(=O)(S)CO[C@H]4[C@@H](F)[C@H](n5cnc6c(N)ncnc65)O[C@@H]4COP(=O)(S)O[C@@H]2[C@@H]3F)c(=O)[nH]1 (single isomer, unassigned) [Compound 17a]: 4.99
CC(C)OC(=O)OCOP1(=O)CO[C@H]2[C@@H](F)[C@H](n3cnc4c(N)ncnc43)O[C@@H]2COP(=O)(OCOC(=O)OC(C)C)O[C@@H]2[C@H](F)[C@@H](CO1)O[C@H]2n1cnc2c(N)ncnc21 (some centres unmarked) [Compound 80b]: 6.05
Nc1nc2c(ncn2[C@@H]2O[C@@H]3COP(=O)(S)CO[C@H]4[C@@H](F)[C@H](n5cnc6c(N)ncnc65)O[C@@H]4COP(=O)(O)O[C@@H]2[C@@H]3F)c(=O)[nH]1 (single isomer, unassigned) [Compound 15a]: 5.64

Record request: pEC50 value, item CC(C)(C)C(=O)OCOP1(=O)CO[C@H]2[C@@H](F)[C@H](n3cnc4c(N)ncnc43)O[C@@H]2COP(=O)(OCOC(=O)C(C)(C)C)O[C@@H]2[C@H](F)[C@@H](CO1)O[C@H]2n1cnc2c(N)ncnc21 (single isomer, unassigned) [Compound 81c] 6.85

Would you kindly share the measured pEC50 for Nc1nc2c(ncn2[C@@H]2O[C@@H]3COP(=O)(O)CO[C@H]4[C@@H](F)[C@H](n5cnc6c(N)ncnc65)O[C@@H]4COP(=O)(S)O[C@@H]2[C@@H]3F)c(=O)[nH]1 (single isomer, unassigned) [Compound 11b] ? 5.72

What does the data say about its pEC50? Entry: Nc1nc2c(ncn2[C@@H]2O[C@@H]3COP(=O)(S)CO[C@H]4[C@@H](F)[C@H](n5cnc6c(N)ncnc65)O[C@@H]4COP(=O)(S)O[C@@H]2[C@@H]3F)c(=O)[nH]1 (single isomer, unassigned) [Compound 17c] 6.85

Quick check: pEC50 of CC(C)OC(=O)OCOP1(=O)CO[C@H]2[C@@H](F)[C@H](n3cnc4c(N)ncnc43)O[C@@H]2COP(=O)(OCOC(=O)OC(C)C)O[C@@H]2[C@H](F)[C@@H](CO1)O[C@H]2n1cnc2c(N)ncnc21 (single isomer, unassigned) [Compound 80a] ? 5.38

Quick check: pEC50 of CC(C)OC(=O)OCOP1(=O)CO[C@H]2[C@@H](F)[C@H](n3cnc4c(N)ncnc43)O[C@@H]2COP(=O)(OCOC(=O)OC(C)C)O[C@@H]2[C@H](F)[C@@H](CO1)O[C@H]2n1cnc2c(N)ncnc21 (single isomer, unassigned) [Compound 80c] ? 5.96

Could you tell me which pEC50 is on file for Nc1nc2c(ncn2[C@@H]2O[C@@H]3COP(=O)(O)CO[C@H]4[C@@H](F)[C@H](n5cnc6c(N)ncnc65)O[C@@H]4COP(=O)(S)O[C@@H]2[C@@H]3F)c(=O)[nH]1 (single isomer, unassigned) [Compound 11a] ? 5.60

What pEC50 value was documented for this compound, Nc1nc2c(ncn2[C@@H]2O[C@@H]3COP(=O)(S)CO[C@H]4[C@@H](F)[C@H](n5cnc6c(N)ncnc65)O[C@@H]4COP(=O)(O)O[C@@H]2[C@@H]3F)c(=O)[nH]1 (single isomer, unassigned) [Compound 15b] ? 5.33

// returns reported pEC50 for input CCCCCCCCCCCC(=O)OCOP1(=O)CO[C@H]2[C@@H](F)[C@H](n3cnc4c(N)ncnc43)O[C@@H]2COP(=O)(OCOC(=O)CCCCCCCCCCC)O[C@@H]2[C@H](F)[C@@H](CO1)O[C@H]2n1cnc2c(=O)[nH]cnc21 (single isomer, unassigned) [Compound 79b] 7.70

What value of pEC50 has been reported for the following compound? Nc1ncnc2c1ncn2[C@@H]1O[C@@H]2COP(=O)(O)O[C@@H]3[C@H](F)[C@@H](COP(=O)(O)CO[C@H]2[C@H]1F)O[C@H]3n1cnc2c(=O)[nH]cnc21 5.09

Name the reported pEC50 value associated with the compound Nc1ncnc2c1ncn2[C@@H]1O[C@@H]2COP(=O)(O)O[C@@H]3[C@H](F)[C@@H](COP(=O)(O)CO[C@H]2[C@H]1F)O[C@H]3n1cnc2c(N)ncnc21 5.21

# query: pEC50 of entry CC(C)(C)C(=O)OCOP1(=O)CO[C@H]2[C@@H](F)[C@H](n3cnc4c(N)ncnc43)O[C@@H]2COP(=O)(OCOC(=O)C(C)(C)C)O[C@@H]2[C@H](F)[C@@H](CO1)O[C@H]2n1cnc2c(=O)[nH]cnc21 (single isomer, unassigned) [Compound 77c] 6.70

Item Nc1ncnc2c1ncn2[C@@H]1O[C@@H]2COP(=O)(S)O[C@@H]3[C@H](F)[C@@H](COP(=O)(O)CO[C@H]2[C@H]1F)O[C@H]3n1cnc2c(=O)[nH]cnc21 (single isomer, unassigned) [Compound 13a] has what recorded pEC50? 5.89

Reported pEC50 for CCCCCCCCCCCC(=O)OCOP1(=O)CO[C@H]2[C@@H](F)[C@H](n3cnc4c(N)ncnc43)O[C@@H]2COP(=O)(OCOC(=O)CCCCCCCCCCC)O[C@@H]2[C@H](F)[C@@H](CO1)O[C@H]2n1cnc2c(=O)[nH]cnc21 (single isomer, unassigned) [Compound 79a] : what is it? 8.52

* * *

Target: human wild type STING (WT STING) (Homo sapiens, UniProt Q86WV6, H232R)
Experiment: 293T WT STING standard reporter assay
Assay type: cell-based
Settings: 293T WT STING EC50, 293T wtSTING-FL cells; standard reporter assay without digitonin; 7 hours; ISRE firefly luciferase
Each item that follows carries a reported EC50.
Write your answer as a measured quantity: the number, then the unit.

// lookup EC50 | system=human wild type STING (WT STING) (Homo sapiens, UniProt Q86WV6, H232R) | key= CC(C)(C)C(=O)OCSP1(=O)CO[C@H]2[C@@H](F)[C@H](n3cnc4c(N)ncnc43)O[C@@H]2COP(=O)(SCOC(=O)C(C)(C)C)O[C@@H]2[C@H](F)[C@@H](CO1)O[C@H]2n1cnc2c(=O)[nH]c(N)nc21 (single isomer, unassigned) [Compound 55d] 300 nM

Recall the recorded EC50 for CCCC(=O)Oc1ccc(CSP2(=O)CO[C@H]3[C@@H](F)[C@H](n4cnc5c(N)ncnc54)O[C@@H]3COP(=O)(O)O[C@@H]3[C@H](F)[C@@H](CO2)O[C@H]3n2cnc3c(=O)[nH]c(N)nc32)cc1 (single isomer, unassigned) [Compound 48a] with human wild type STING (WT STING) (Homo sapiens, UniProt Q86WV6, H232R) and state it. 5600 nM

Could you share what EC50 was measured for CC(C)(C)C(=O)OCSP1(=O)CO[C@H]2[C@@H](F)[C@H](n3cnc4c(N)ncnc43)O[C@@H]2COP(=O)(O)O[C@@H]2[C@H](F)[C@@H](CO1)O[C@H]2n1cnc2c(=O)[nH]c(N)nc21 (single isomer, unassigned) [Compound 41b] , tested on human wild type STING (WT STING) (Homo sapiens, UniProt Q86WV6, H232R)? 87800 nM

Observed EC50 on human wild type STING (WT STING) (Homo sapiens, UniProt Q86WV6, H232R) for CCCCCC(=O)Oc1ccc(CSP2(=O)CO[C@H]3[C@@H](F)[C@H](n4cnc5c(N)ncnc54)O[C@@H]3COP(=O)(O)O[C@@H]3[C@H](F)[C@@H](CO2)O[C@H]3n2cnc3c(=O)[nH]c(N)nc32)cc1 (single isomer, unassigned) [Compound 42b] , please. 200 nM

human wild type STING (WT STING) (Homo sapiens, UniProt Q86WV6, H232R) / EC50 / CCCCCC(=O)Oc1ccc(C(=O)Oc2ccc(CSP3(=O)CO[C@H]4[C@@H](F)[C@H](n5cnc6c(N)ncnc65)O[C@@H]4COP(=O)(O)O[C@@H]4[C@H](F)[C@@H](CO3)O[C@H]4n3cnc4c(=O)[nH]c(N)nc43)cc2)cc1 (single isomer, unassigned) [Compound 49b] : value? 4500 nM

Field: EC50 (human wild type STING (WT STING) (Homo sapiens, UniProt Q86WV6, H232R)). Entry: CCCCCCCCCCCC(=O)OCSP1(=O)CO[C@H]2[C@@H](F)[C@H](n3cnc4c(N)ncnc43)O[C@@H]2COP(=O)(O)O[C@@H]2[C@H](F)[C@@H](CO1)O[C@H]2n1cnc2c(=O)[nH]c(N)nc21 (single isomer, unassigned) [Compound 76a] 300 nM

Reported EC50 for human wild type STING (WT STING) (Homo sapiens, UniProt Q86WV6, H232R), given CCCCCCCCCCCC(=O)OCSP1(=O)CO[C@H]2[C@@H](F)[C@H](n3cnc4c(N)ncnc43)O[C@@H]2COP(=O)(O)O[C@@H]2[C@H](F)[C@@H](CO1)O[C@H]2n1cnc2c(=O)[nH]c(N)nc21 (single isomer, unassigned) [Compound 76b] ? 30 nM

Reported EC50 for human wild type STING (WT STING) (Homo sapiens, UniProt Q86WV6, H232R), given CCCCCCCCCCCC(=O)Oc1ccc(CSP2(=O)CO[C@H]3[C@@H](F)[C@H](n4cnc5c(N)ncnc54)O[C@@H]3COP(=O)(O)O[C@@H]3[C@H](F)[C@@H](CO2)O[C@H]3n2cnc3c(=O)[nH]c(N)nc32)cc1 (single isomer, unassigned) [Compound 47b] ? 90 nM
